- Experimental Details: Cytotoxicity against human MCF7 cells assessed as cell growth inhibition at 100 uM after 48 hrs by MTT assay
- Assay type: cell-based
- Experimental Context: read-out: GI
Measurement Label: inhibition at 48 h, 100 µM (%)
Answers are plain numbers, in %.

Fill in the blank: the reported inhibition at 48 h, 100 µM of `Cc1ccc2cc(/C=C/C(=O)c3ccccn3)c(Cl)nc2c1` is ____.
66

====

- Test system: Radical scavenging activity
- Experimental Details: Antioxidant activity assessed as DPPH radical scavenging activity at 80 uM after 30 mins
- Format: functional
Record form. Attribute: Activity. Fill in for each entry.

Solved cases below.
| Compound | Meas Value |
| --- | --- |
| CCN(CC)CCCC(C)Nc1ccnc2cc(Cl)ccc12 (stereo unspecified) | 4.06% |
| C/C(=C\c1cc2ccccc2nc1Cl)C(=O)c1cccc(Br)c1 | 1.43% |

Record Activity for all entries; do not skip any.
1. C/C(=C\c1cc2ccc(C)cc2nc1Cl)C(=O)c1cccc(Cl)c1
2. C/C(=C\c1cc2ccc(C)cc2nc1Cl)C(=O)c1cccc(Br)c1
3. O=C(/C=C/c1cc2ccccc2nc1Cl)c1ccc(Cl)cc1

0.78%
2.27%
3.69%

Fill in the blank: the reported Activity of `C=C[C@H]1CN2CC[C@H]1C[C@H]2[C@H](O)c1ccnc2ccc(OC)cc12` is ____.
2.65%

====

- Experimental Details: Toxicity in human RBC assessed as hemolysis at 100 uM after 48 hrs
- Format: cell-based, Erythrocyte
- Experimental Context: red blood cells (RBC), read-out: Activity
Record form. Attribute: hemolysis at 48 h, 100 µM. Fill in for each entry.
Answers are plain numbers, in %.

Solved cases below.
| Compound | hemolysis at 48 h, 100 µM (%) |
| --- | --- |
| Cc1ccc2nc(Cl)c(/C=C/C(=O)c3cccc(Br)c3)cc2c1 | 1.68 |
| CCN(CC)CCCC(C)Nc1ccnc2cc(Cl)ccc12 (stereo unspecified) [CHLOROQUINE] | 0.72 |
| C/C(=C\c1cc2ccc(C)cc2nc1Cl)C(=O)c1cccc(Br)c1 | 1.04 |
| Cc1ccc2nc(Cl)c(/C=C/C(=O)c3ccc(Br)cc3)cc2c1 | 1.4 |
| O=C(/C=C/c1cc2ccccc2nc1Cl)c1ccccn1 | 1.1 |
| C/C(=C\c1cc2cc(C)ccc2nc1Cl)C(=O)c1cccc(Br)c1 | 1.53 |
| C/C(=C\c1cc2ccccc2nc1Cl)C(=O)c1cccc(Br)c1 | 2.17 |
| O=C(/C=C/c1cc2ccccc2nc1Cl)c1ccc(Cl)cc1 | 1.74 |
| C/C(=C\c1cc2cc(C)ccc2nc1Cl)C(=O)c1cccc(Cl)c1 | 1.24 |
| C/C(=C\c1cc2ccc(C)cc2nc1Cl)C(=O)c1cccc(Cl)c1 | 1.44 |

Record hemolysis at 48 h, 100 µM for all entries; do not skip any.
1. Cc1ccc2nc(Cl)c(/C=C/C(=O)c3ccccn3)cc2c1
2. C=C[C@H]1C[N@@]2CC[C@H]1C[C@H]2[C@H](O)c1ccnc2ccc(OC)cc12 [QUININE]
3. Cc1ccc2cc(/C=C/C(=O)c3ccccn3)c(Cl)nc2c1
4. Cc1ccc2cc(/C=C/C(=O)c3cccc(Br)c3)c(Cl)nc2c1
5. O=C(/C=C/c1cc2ccccc2nc1Cl)c1cccc(Br)c1

[1.55, 1.22, 0.47, 1.09, 1.38]

Fill in the blank: the reported hemolysis at 48 h, 100 µM of `O=C(/C=C/c1cc2ccccc2nc1Cl)c1ccc(Br)cc1` is ____.
2.2

These entries and their values trace back to ChEMBL document CHEMBL1781903.
